Target: Human D1 (Homo sapiens (Human))
Sequence (P21728 whole entry): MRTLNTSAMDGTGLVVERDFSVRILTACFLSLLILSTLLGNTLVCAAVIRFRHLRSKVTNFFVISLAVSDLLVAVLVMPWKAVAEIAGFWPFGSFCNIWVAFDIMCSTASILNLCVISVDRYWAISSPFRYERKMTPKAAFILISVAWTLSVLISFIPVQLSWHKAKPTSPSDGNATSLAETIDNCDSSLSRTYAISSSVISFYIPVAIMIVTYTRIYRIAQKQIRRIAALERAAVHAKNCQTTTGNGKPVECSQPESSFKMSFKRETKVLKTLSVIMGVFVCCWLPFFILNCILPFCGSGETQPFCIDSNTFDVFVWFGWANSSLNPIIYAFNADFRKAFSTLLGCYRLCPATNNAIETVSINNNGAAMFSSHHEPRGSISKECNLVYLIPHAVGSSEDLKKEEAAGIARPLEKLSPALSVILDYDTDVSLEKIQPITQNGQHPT
Assay: D1 cAMP HTRF Assay
Format: cell-based
Settings: HEK293T/hD1#1 stable cell line, 30 min at room temperature; footnote a = geometric mean of ≧7 determinations
READOUT TYPE: EC50 (nM)

Below, each entry is followed by its recorded EC50 result.
COMPOUND: Cc1cc2[nH]ncc2c(Oc2ccc(-c3c(C)n[nH]c(=O)c3C)cc2)n1
TESTED SYSTEM: Human D1 (Homo sapiens (Human))
UNIT SYMBOL: nM
EC50: 89.1
//
COMPOUND: Cc1cc(Oc2nccc3[nH]ncc23)ccc1-c1cc(=O)[nH]nc1C
TESTED SYSTEM: Human D1 (Homo sapiens (Human))
UNIT SYMBOL: nM
EC50: 548

[1] Cc1cc(Oc2nccc3[nH]ncc23)ccc1-n1c(C)nc2cnccc21
[2] Cc1ncc2nccn2c1-c1ccc(Oc2nccc3[nH]ccc23)cc1F
Input: I'd appreciate it if you could identify which of 1 and 2 has the greater EC50. Return value: the label identifying the chosen record.
Output: 1

[a] Cc1cc(Oc2nccc3n[nH]cc23)ccc1-c1c(C)ncc(=O)n1C (single isomer, unassigned) [Example 40]
[b] COc1cnc(Oc2ccc(-c3c(C)n[nH]c(=O)c3C)cc2)c2cn[nH]c12
Input: Identify the item whose EC50 is the smaller number: a or b Return value: the label identifying the chosen record.
Output: a
(a: 674 nM, b: 1300 nM)

* * *

Biological target: Human D1 (Homo sapiens (Human))
Test: D1 cAMP HTRF Assay
Type: cell-based
Conditions: read-out: Human D1 cAMP HTRF, EC50 (μM); Geometric mean of 2-6 determinations; HEK293T/hD1#1 stable cell line, 30 min at room temperature; footnote a = geometric mean of ≧7 determinations
READOUT TYPE: EC50 (µM)

Below, each entry is followed by its recorded EC50 result.
COMPOUND: Cc1cc(Oc2nccc3[nH]ccc23)ccc1-c1c(C)cnnc1C (single isomer, unassigned; ent-2) [Example 12]
READOUT TYPE: EC50
ENDPOINT VALUE: 0.52

COMPOUND: Cc1cc(Oc2nccc3[nH]ccc23)ccc1-c1c(C)cnnc1C (single isomer, unassigned; ent-1) [Example 11]
READOUT TYPE: EC50
ENDPOINT VALUE: 0.117

[A] Cc1cc(Oc2nccc3[nH]ccc23)ccc1-c1c(C)n[nH]c(=O)c1C (single isomer, unassigned; ent-1) [Example 9]
[B] Cc1cc(Oc2nccc3[nH]ccc23)ccc1-c1c(C)n[nH]c(=O)c1C (single isomer, unassigned; ent-2) [Example 10]
Input: I'd appreciate it if you could identify which of A and B has the greater EC50. Return value: the label identifying the chosen record.
Output: A

* * *

Target: Human D1 (Homo sapiens (Human))
Assay: D1 cAMP HTRF Assay
Format: cell-based
Conditions: HEK293T/hD1#1 stable cell line, 30 min at room temperature; footnote a = geometric mean of ≧7 determinations
pEC50: −log10 of the molar value.
READOUT TYPE: pEC50

Below, each entry is followed by its recorded pEC50 result.
COMPOUND: Cc1cc(Oc2nccc3[nH]ccc23)ccc1-c1c(C)ncnc1C#N [Example 17]
READOUT TYPE: pEC50
ENDPOINT VALUE: 6.43
--
COMPOUND: Cc1ncnc(N2CC(F)C2)c1-c1ccc(Oc2nccc3[nH]ccc23)cc1F [Example 25]
READOUT TYPE: pEC50
ENDPOINT VALUE: 6.81

[A] Cc1ncnc(C)c1-c1ccc(Oc2nccc3[nH]ccc23)cc1 [Example 20]
[B] Cc1ncnc(C)c1-c1ccc(Oc2nccc3[nH]ncc23)cc1 [Example 38]
[C] Cc1cc(Oc2nccc3[nH]ccc23)ccc1-c1c(C)ncnc1C [Example 5]
Input: Order the items by recorded pEC50; the first position goes to the largest value. Returns: the labels listed in the requested order.
Output: C, A, B
(C: 6.84, A: 6.62, B: 5.60)
